assayed.target: (UniProt Z9DR95LUB2)
experiment.description: AHAS enzyme inhibition assay
Type: biochemical, Trichoderma afroharzianum t-22
readout.label: pKi
Please note pKi is a logarithmic value: minus log10 of concentration in mol/L. Answer with that number alone.

Could you please provide reported pKi for CCCC=CC=CC(=O)C1=C(O)C(CC(O)(C(=O)O)C(C)C)N(C)C1=O (stereo not shown) [HA, harzianic acid] ? Thanks!
5.18

====

assayed.target: ThAHAS^M
experiment.description: AHAS enzyme inhibition assay
conditions.used: [E]=0.5 μM
readout.label: pIC50
Please note pIC50 is a logarithmic value: minus log10 of concentration in mol/L. Answer with that number alone.

{"columns": ["molecule", "observed.measurement"],
 "data": [
  ["CCCC=CC=CC(=O)C1=C(O)C(CC(O)(C(=O)O)C(C)C)N(C)C1=O (centres unmarked)", 4.70]
]}

Turning now to a further record.
Could you please provide reported pIC50 for CCCC=CC=CC(=O)C1=C(O)C(CC(O)(C(=O)O)C(C)C)NC1=O (centres unmarked) ? Thanks!
4.43
